# ASSAY_NAME: Conjugator-antibody conjugate maleimide hydrolysis (ring opening) kinetics by reduced LCMS
# Type: physicochemical
# EXPERIMENTAL_CONTEXT: pH 7, time point 3 h
ENDPOINT: RO (%) Total
Your answer is read as %, so omit the unit and give the number.

Known RO (%) Total results, listed for orientation:
[[record]]
compound = "CN(C)C(=O)CCOCCC(CN)N1C(=O)C=CC1=O (stereo not drawn)"
reported = 59.15

[[record]]
compound = "CN(C)C(=O)CCNC(=O)NCC(CN)N1C(=O)C=CC1=O (stereo not drawn)"
reported = 86.08


Lookup result for CN(C)C(=O)CCNC(=O)OCC(CCN)N1C(=O)C=CC1=O (stereo not drawn) ; measured RO (%) Total: 10.83

Lookup result for CN(C)C(=O)CCCCC(CN)N1C(=O)C=CC1=O (stereo not drawn) ; measured RO (%) Total: 69.43

Lookup result for CN(C)C(=O)CN(C)C(=O)OCC(CN)N1C(=O)C=CC1=O (stereo not drawn) ; measured RO (%) Total: 92.12

Lookup result for CN(C)C(=O)CCNC(=O)OCCC(CN)N1C(=O)C=CC1=O (stereo not drawn) ; measured RO (%) Total: 85.77

----------
# ASSAY_NAME: Conjugator-antibody conjugate maleimide hydrolysis (ring opening) kinetics by reduced LCMS
# Assay type: physicochemical
# EXPERIMENTAL_CONTEXT: pH 7, time point 1 h
Flag rule - MS DAR less than 8 flags condition met; the remaining entries get condition not met.

[[record]]
compound = "CN(C)C(=O)CCOCC(N)CN1C(=O)C=CC1=O (stereo not drawn)"
classification = "condition not met"


Note: attention shifts to another entry.
Request: Hello, is MS DAR of the following compound strictly smaller than 8? CN(C)C(=O)CN(C)C(=O)OCC(CN)N1C(=O)C=CC1=O (stereo not drawn)
Response: condition met

----------
# ASSAY_NAME: Conjugator-antibody conjugate maleimide hydrolysis (ring opening) kinetics by reduced LCMS
# Type: physicochemical
# EXPERIMENTAL_CONTEXT: pH 7, time point 24 h
ENDPOINT: RO (%) LC
Your answer is read as %, so omit the unit and give the number.

Known RO (%) LC results, listed for orientation:
[[record]]
molecule = "CN(C)C(=O)CCOCC(N)CN1C(=O)C=CC1=O (stereo not shown)"
reported = 92.99

[[record]]
molecule = "CN(C)C(=O)CCOCCC(CN)N1C(=O)C=CC1=O (stereo not shown)"
reported = 95.83

[[record]]
molecule = "CN(C)C(=O)CCNC(=O)OCCC(CN)N1C(=O)C=CC1=O (stereo not shown)"
reported = 94.99


Below: the item to evaluate.
Lookup result for CN(C)C(=O)CCNC(=O)OCC(CCN)N1C(=O)C=CC1=O (stereo not shown) ; measured RO (%) LC: 68.64

----------
# ASSAY_NAME: Conjugator-antibody conjugate stability in formulation buffer (pH 5.5 20 mM histidine buffer)
# Assay type: physicochemical
# EXPERIMENTAL_CONTEXT: incubation 168 h, pH 5.5, 22 °C
Listed here: items and their measured MS DAR-T = 168 h.

[[record]]
compound = "CN(C)C(=O)CCNC(=O)OCCC(CN)N1C(=O)C=CC1=O (centres unmarked) [3-13]"
endpoint = "MS DAR-T = 168 h"
reported = 7.88

[[record]]
compound = "CN(C)C(=O)CCCCC(CN)N1C(=O)C=CC1=O (centres unmarked) [3-10]"
endpoint = "MS DAR-T = 168 h"
reported = 8.00


Below: the item to evaluate.
Lookup result for CN(C)C(=O)CCNC(=O)NCC(CN)N1C(=O)C=CC1=O (centres unmarked) [3-12] ; measured MS DAR-T = 168 h: 8.02
